Measured values drawn from the supplement of paper PMC10127200 for this set.

Tested on: DU145
Experiment: Euclidean distance of Cell Painting phenotypic profile (signed KS, 77 features) to DMSO centroid (dimensionless distance); 5 or 10 uM (library dependent); higher = stronger phenotypic change vs DMSO (phenoactivity)
Details: 48 h
Counter-ions that a name gives are not always drawn.
Result Type: Euclidean distance
Enter a number only.

Worked cases, Euclidean distance given:
>>> test_value("COc1ccccc1N1CCN(CCCNc2cc(=O)n(C)c(=O)n2C)CC1 [Urapidil HCl]")
0.94
>>> test_value("O=C(/C=C/c1ccc(O)c(O)c1)O[C@@H]1C[C@](O)(C(=O)O)C[C@@H](O)[C@H]1O")
1.38

Prompt: Notebook entry, DU145 assay: Euclidean distance of CNC(=O)CN1CCC(Oc2cc3c(Nc4cccc(Cl)c4F)ncnc3cc2OC)CC1 = ?
Response: 2.21

Prompt: Entry Cn1c(=O)cc(N2CCC[C@@H](N)C2)n(Cc2cc(F)ccc2C#N)c1=O [Trelagliptin succinate] , system DU145: what Euclidean distance was measured?
Response: 1.04

Prompt: Param readout = Euclidean distance; param system = DU145; param query = CC1=NN(c2ccccc2)C(=O)C1 ; response: value
Response: 0.819

Prompt: What Euclidean distance appears in the records for this molecule with DU145? CCN(CC)Cc1cc(Nc2ccnc3cc(Cl)ccc23)ccc1O [Amodiaquine hydrochloride]
Response: 1.67

Prompt: Write down the reported Euclidean distance of O=C(Nc1cccc(Cl)c1)Nc1ncc(CCNc2ncnc3ccsc23)s1 [SNS-314 Mesylate] , test system: DU145.
Response: 0.974

Prompt: Recall the recorded Euclidean distance for O=C(OCC(O)CO)c1ccccc1Nc1ccnc2cc(Cl)ccc12 (stereo not drawn) [Glafenine HCl] with DU145 and state it.
Response: 0.824

----------
System: FB
Experiment: Euclidean distance of Cell Painting phenotypic profile (signed KS, 77 features) to DMSO centroid (dimensionless distance); 5 or 10 uM (library dependent); higher = stronger phenotypic change vs DMSO (phenoactivity)
Settings: 48 h
Where a name gives a salt, the structure may show the parent alone.
The threshold is inclusive: Euclidean distance of exactly 0.8 counts as true; values below receive false.

Observe how each entry below is paired with its result.
>>> discrete_label("CCN1CC(CCN2CCOCC2)C(c2ccccc2)(c2ccccc2)C1=O (configuration not stated) [Doxapram HCl]")
"false"
>>> discrete_label("OC[C@H]1O[C@@H](Oc2cc(O)cc(/C=C/c3ccc(O)cc3)c2)[C@H](O)[C@@H](O)[C@@H]1O")
"true"
>>> discrete_label("O=C(O)c1cc(O)c2c(c1)[C@H]([C@H]1c3cc(C(=O)O)cc(O)c3C(=O)c3c(O[C@@H]4O[C@H](CO)[C@@H](O)[C@H](O)[C@H]4O)cccc31)c1cccc(O[C@@H]3O[C@H](CO)[C@@H](O)[C@H](O)[C@H]3O)c1C2=O [Sennoside A]")
"true"
>>> discrete_label("CC1=C(C(=O)O)N2C(=O)[C@@H](NC(=O)[C@H](N)c3ccccc3)[C@H]2SC1")
"true"

// next entry
Prompt: In plain terms: is recorded Euclidean distance at least 0.8 for CCc1ccc(/C=C2/SC(=S)NC2=O)cc1 ?
Response: true

----------
Tested on: A549
Test: Euclidean distance of Cell Painting phenotypic profile (signed KS, 77 features) to DMSO centroid (dimensionless distance); 5 or 10 uM (library dependent); higher = stronger phenotypic change vs DMSO (phenoactivity)
Conditions: 48 h
Result Type: Euclidean distance
Give your answer as a number; write no unit.

>>> test_value("C=C[C@@]1(C)CC(=O)[C@]2(O)[C@@]3(C)[C@@H](O)CCC(C)(C)[C@@H]3[C@H](O)[C@H](OC(C)=O)[C@@]2(C)O1")
1.04

Prompt: What Euclidean distance value was documented for this molecule, COc1ccc2cc([C@H](C)C(=O)O)ccc2c1 [Naproxen] ?
Response: 0.78

Prompt: Which Euclidean distance reading was recorded for the molecule O=C(NOCC(O)CO)c1cc(Br)c(F)c(F)c1Nc1ccc(I)cc1F (stereo not given) ?
Response: 2.76

Prompt: Which Euclidean distance value belongs to N[C@@H](Cc1cc(I)c(Oc2cc(I)c(O)c(I)c2)c(I)c1)C(=O)O ?
Response: 1.12

Prompt: Using the record for OCc1ccc(Cl)cc1Cl , report its Euclidean distance.
Response: 0.36
